Data provenance is PubChem BioAssay (EPA / NIEHS).

ASSAY NAME: CCTE_Shafer_MEA_acute_cross_correlation_HWHM: CCTE's Neural Acute Assay for Cross Correlation at Half Width at Half Maximum, Shafer Lab (AID 2284026);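 further: percent change per well from pre-dose baseline in spike cross-correlogram half width; hits are a decrease in cross-correlogram half width relative to DMSO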
Calls of active or inactive are those of the source. How the source made its calls: active means hit-call score of the fitted dose curve at least 0.9, where 1 is the maximum; inactive means score below 0.9. Peptide text beside a SMILES is read from it.
Choose the fitting class; nothing outside active, inactive is accepted.

q: Hi, sorry to bother you, what did the test record for COC(=O)[C@H](Cc1ccccc1)NC(=O)[C@@H](N)CC(=O)O (H-Asp-Phe-OMe) ?
a: inactive

q: Hi, sorry to bother you, what did the test record for `Oc1ccccc1Cc1ccccc1O` ?
a: active

q: Hi, sorry to bother you, what did the test record for `CC1(C)CC(O)CC(C)(C)N1[O]` ?
a: inactive

q: Hi, sorry to bother you, what did the test record for `CCCCCCCCCCCC(=O)N(C)CC(=O)O` ?
a: active

q: Hi, sorry to bother you, what did the test record for `Nc1nc(N)nc(-c2ccccc2)n1` ?
a: inactive

q: Hi, sorry to bother you, what did the test record for `CC/C=C\CCOC(=O)c1ccccc1O` ?
a: inactive

q: Hi, sorry to bother you, what did the test record for `CC(C)C(=O)OCCc1ccccc1` ?
a: inactive

q: Hi, sorry to bother you, what did the test record for `Cc1c(C(=O)c2c[nH]n(C)c2=O)ccc(S(C)(=O)=O)c1C1=NOCC1` ?
a: inactive

q: Hi, sorry to bother you, what did the test record for `c1ccc(Nc2cccc3ccccc23)cc1` ?
a: active

q: Hi, sorry to bother you, what did the test record for `C1CNCCN1` ?
a: inactive

* * *

Read-out: Plasminogen activator inhibitor-1 (PAI1), SERPINE1 (gene 5054)
ASSAY NAME: BSK_CASM3C_PAI1: BioMAP Diversity Plus: CASM3C Assay for Plasminogen activator inhibitor-1 (PAI1) Biomarker Activity (AID 2284284);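 further: PAI-1 protein level measured by ELISA 24 h after dosing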
DETAILS: primary human coronary artery smooth muscle cells
Calls of active or inactive are those of the source. The calls were made as follows: active = hit-call score of the fitted dose curve at least 0.9, where 1 is the maximum; inactive = score below 0.9.
TEST READOUT: outcome

| MOLECULE | ASSAY RESULT |
| --- | --- |
| C[N+](C)(C)CCCNS(=O)(=O)C(F)(F)C(F)(F)C(F)(F)C(F)(F)C(F)(F)C(F)(F)C(F)(F)C(F)(F)F | inactive |
| Nc1nc(N)nc(-c2ccccc2)n1 | inactive |
| CC(CCC(=O)O)(c1ccc(O)cc1)c1ccc(O)cc1 | inactive |
| CC(C)C(=O)OCCc1ccccc1 | inactive |
| CCCC(C)C(=O)OCC (stereo not drawn) | inactive |
| c1ccc(Nc2cccc3ccccc23)cc1 | inactive |

# outcome (molecule: `O=C(O)C(F)(F)C(F)(F)C(F)(F)C(F)(F)C(=O)O` ) is inactive

# outcome (molecule: `CCCCCCCCCCCC(=O)N(C)CC(=O)O` ) is inactive

* * *

Read-out: Interferon-gamma inducible Protein 10 (IP10), CXCL10 (gene 3627)
ASSAY NAME: BSK_KF3CT_IP10: BioMAP Diversity Plus: KF3CT Assay for Interferon-gamma inducible Protein 10 (IP10) Biomarker Activity (AID 2283068)
DETAILS: primary human keratinocytes with fibroblasts; actives raise or lower the signal
Active and inactive are the calls of the source. How the source made its calls: active means hit-call score of the fitted dose curve at least 0.9, where 1 is the maximum; inactive means score below 0.9.
TEST READOUT: AC50

| COMPOUND | TEST READOUT | ASSAY RESULT |
| --- | --- | --- |
| c1ccc2sc(SSN3CCOCC3)nc2c1 | AC50 | 23.8 µM (active) |
| CCOC(=O)C1=NN(c2ccc(Cl)cc2Cl)C(C)(C(=O)OCC)C1 (stereo not drawn) | AC50 | inactive |
| CC(C)C(=O)OCCc1ccccc1 | AC50 | inactive |

* * *

ASSAYED SYSTEM: Peroxisome proliferator-activated receptor gamma (Homo sapiens)
ASSAY NAME: ATG_PPARg_TRANS: Attagene TRANS-FACTORIAL HepG2 Assay for human Peroxisome Proliferator-activated Receptor-gamma (PPARg) (AID 2283007)
Records with an inconclusive call do not appear. Activity calls are given as the source filed them. How the source made its calls: active means hit-call score of the fitted dose curve at least 0.9, where 1 is the maximum; inconclusive means response in the unintended direction; inactive means score below 0.9.
Choose the fitting class; nothing outside 1 (yes) for active, 0 (no) for inactive is accepted.

q: Hi, sorry to bother you, what did the test record for `C[Si]1(C)O[Si](C)(C)O[Si](C)(C)O[Si](C)(C)O[Si](C)(C)O1` ?
a: 0 (no)

q: Hi, sorry to bother you, what did the test record for `C/C=C/C=C/CCCCCCCO` ?
a: 1 (yes)

q: Hi, sorry to bother you, what did the test record for `CC(C)CCCCCOC(=O)CS` ?
a: 1 (yes)

q: Hi, sorry to bother you, what did the test record for CCC(=O)C1CC(C(C)C)CC=C1C (stereo not given) ?
a: 1 (yes)

q: Hi, sorry to bother you, what did the test record for CCOC(=O)C1=NN(c2ccc(Cl)cc2Cl)C(C)(C(=O)OCC)C1 (stereo not given) ?
a: 1 (yes)

* * *

Read-out: Macrophage colony-stimulating factor (MCSF), CSF1 (gene 1435)
ASSAY NAME: BSK_hDFCGF_MCSF: BioMAP Diversity Plus: hDFCGF Assay for Macrophage colony-stimulating factor (MCSF) Biomarker Activity (AID 2283060)
DETAILS: primary human foreskin fibroblasts; actives raise or lower the signal
Active and inactive are the calls of the source. Rule for the calls: active = hit-call score of the fitted dose curve at least 0.9, where 1 is the maximum; inactive = score below 0.9.
Choose the fitting class; nothing outside active, inactive is accepted.

q: Hi, sorry to bother you, what did the test record for `CC(C)[N+](C)(CCOC(=O)C1c2ccccc2Oc2ccccc21)C(C)C` ?
a: inactive

q: Hi, sorry to bother you, what did the test record for `C=CC(=O)NC(C)(C)C` ?
a: inactive

q: Hi, sorry to bother you, what did the test record for `CCOC(=O)/C=C\C(=O)OCC` ?
a: inactive

q: Hi, sorry to bother you, what did the test record for `CCCCC1C(=O)N(c2ccccc2)N(c2ccccc2)C1=O` ?
a: inactive

q: Hi, sorry to bother you, what did the test record for `CC(C)CCCCCOC(=O)CS` ?
a: inactive

q: Hi, sorry to bother you, what did the test record for `CC(C)C(=O)OCCc1ccccc1` ?
a: inactive

q: Hi, sorry to bother you, what did the test record for `C=CC(=O)NCOCCCC` ?
a: inactive

q: Hi, sorry to bother you, what did the test record for `CC/C=C\C/C=C\C/C=C\CCCCCCCC(=O)OC` ?
a: active

q: Hi, sorry to bother you, what did the test record for `Cc1ccc([N+](=O)[O-])cc1N` ?
a: inactive

q: Hi, sorry to bother you, what did the test record for `COc1ccc(C(=O)c2ccccc2)c(O)c1` ?
a: inactive

q: Hi, sorry to bother you, what did the test record for CCCCCCCCC(CO)CCCCCC (stereo not given) ?
a: active

q: Hi, sorry to bother you, what did the test record for `C=C(C)C(=O)OCCCCCCCCCCCC` ?
a: inactive

q: Hi, sorry to bother you, what did the test record for `C=CC(=O)OCCCCCCCC(C)C` ?
a: active

q: Hi, sorry to bother you, what did the test record for CCC1(C)C(=O)N(Cl)C(=O)N1Cl (stereo not given) ?
a: inactive

q: Hi, sorry to bother you, what did the test record for `CCCCCCCO` ?
a: inactive

* * *

Read-out: Urokinase-type plasminogen activator receptor (uPAR), PLAUR (gene 5329)
ASSAY NAME: BSK_4H_uPAR: BioMAP Diversity Plus: 4H Assay for Urokinase-type plasminogen activator receptor (uPAR) Biomarker Activity (AID 2283030)
DETAILS: primary human endothelial cells (HUVEC); actives raise or lower the signal
Calls of active or inactive are those of the source. Rule for the calls: active = hit-call score of the fitted dose curve at least 0.9, where 1 is the maximum; inactive = score below 0.9.
Choose the fitting class; nothing outside TRUE = active, FALSE = inactive is accepted.

q: Hi, sorry to bother you, what did the test record for `Oc1c(Cl)cc(Cl)c(Cl)c1Cl` ?
a: TRUE

q: Hi, sorry to bother you, what did the test record for `CC(C)[N+](C)(CCOC(=O)C1c2ccccc2Oc2ccccc21)C(C)C` ?
a: FALSE

q: Hi, sorry to bother you, what did the test record for `O=C(Oc1ccccc1)c1ccccc1C(=O)Oc1ccccc1` ?
a: FALSE

q: Hi, sorry to bother you, what did the test record for `CC/C=C\CCOC(=O)c1ccccc1O` ?
a: TRUE

q: Hi, sorry to bother you, what did the test record for `C=CC(=O)NC(C)(C)C` ?
a: FALSE

q: Hi, sorry to bother you, what did the test record for `CC(CCC(=O)O)(c1ccc(O)cc1)c1ccc(O)cc1` ?
a: FALSE

q: Hi, sorry to bother you, what did the test record for `Cc1ccc([N+](=O)[O-])cc1N` ?
a: FALSE

* * *

Read-out: Collagen III, COL3A1 (gene 1281)
ASSAY NAME: BSK_MyoF_CollagenIII: BioMAP Diversity Plus: MyoF Assay for Collagen III Biomarker Activity (AID 2284239)
DETAILS: primary human lung fibroblasts
Active and inactive are the calls of the source. How the source made its calls: active means hit-call score of the fitted dose curve at least 0.9, where 1 is the maximum; inactive means score below 0.9.
Choose the fitting class; nothing outside active, inactive is accepted.

q: Hi, sorry to bother you, what did the test record for `COC(OC)(C(=O)c1ccccc1)c1ccccc1` ?
a: inactive

q: Hi, sorry to bother you, what did the test record for `CCN1CN(CC)CN(CC)C1` ?
a: inactive

q: Hi, sorry to bother you, what did the test record for `CCCCCCC=O` ?
a: inactive

q: Hi, sorry to bother you, what did the test record for `CCNc1nc(NC(C)(C)C)nc(OC)n1` ?
a: inactive

q: Hi, sorry to bother you, what did the test record for C=CC(=O)OCC(C)OCC(C)OCC(C)OC(=O)C=C (stereo not given) ?
a: active

q: Hi, sorry to bother you, what did the test record for `CC(C)[N+](C)(CCOC(=O)C1c2ccccc2Oc2ccccc21)C(C)C` ?
a: inactive

q: Hi, sorry to bother you, what did the test record for CCCCCCCCC(CO)CCCCCC (stereo not given) ?
a: inactive

q: Hi, sorry to bother you, what did the test record for `Oc1ccc(/C=C/c2cc(O)cc(O)c2)cc1` ?
a: inactive

q: Hi, sorry to bother you, what did the test record for `O=C1CCCCCCCCCCC1` ?
a: inactive

q: Hi, sorry to bother you, what did the test record for `CC/C=C\CCOC(=O)c1ccccc1O` ?
a: active

q: Hi, sorry to bother you, what did the test record for `O=C(Oc1ccccc1)c1ccccc1C(=O)Oc1ccccc1` ?
a: inactive

q: Hi, sorry to bother you, what did the test record for `C=CC(=O)NCOCCCC` ?
a: inactive

q: Hi, sorry to bother you, what did the test record for `c1ccc2c(c1)[nH]c1ccccc12` ?
a: inactive

q: Hi, sorry to bother you, what did the test record for `Clc1cc(Cl)c(Cl)c(Cl)c1Cl` ?
a: inactive

q: Hi, sorry to bother you, what did the test record for `O=C(O)C(F)(F)C(F)(F)C(F)(F)C(F)(F)C(=O)O` ?
a: inactive
